molecular target: Glycogen synthase kinase-3 (Homo sapiens, UniProt P49840+P49841); assay: Inhibitory concentration against the Glycogen synthase kinase-3; format: protein assay
Reported property: IC50 (nM)

Study these solved cases before continuing.
O=C1NC(=O)C(c2cn3c4c(cccc24)CNCC3)=C1c1cccc2sccc12
34
O=C1NC(=O)C(c2cnc3ncccn23)=C1c1cn2c3c(cccc13)CN(C(=O)N1CCOCC1)CC2
1.7
O=C1NC(=O)C(c2cn3c4c(cccc24)CNCC3)=C1c1cccc2occc12
41
CN(C)C(=O)N1CCn2cc(C3=C(c4cccc5ccoc45)C(=O)NC3=O)c3cccc(c32)C1
2.7
O=C1NC(=O)C(c2cnc3ncccn23)=C1c1cn2c3c(cccc13)CN(C(=O)N1CCCCC1)CC2
1.9

(I) O=C1NC(=O)C(c2cnc3ccccn23)=C1c1cn2c3c(cccc13)CN(C(=O)N1CCCCC1)CC2
(II) O=C1NC(=O)C(c2cnc3cnccn23)=C1c1cn2c3c(cccc13)CNCC2
Enquiry: Quick one: lower IC50, I or II ? Record your answer as the label of the chosen record.
Return: I
